# Tested on: S. aureus USA#18
# method_notes: Activity II bioassay (anti-PBP2' action), agar well diffusion with methicillin 10 μg/ml
# Type: cell-based, Staphylococcus aureus
measured_metric: activity II, pure compounds

Q: Identify the measured activity II, pure compounds of `O=c1c(O)c(-c2ccc(O)cc2)oc2cc(O)cc(O)c12` for S. aureus USA#18.
Ans: no activity II

Q: Quick one: `O=c1c(O)c(-c2ccc(O)c(O)c2)oc2cc(O)cc(O)c12`
Ans: no activity II

Q: Quick one: Oc1cc(O)c2c(c1)O[C@H](c1cc(O)c(O)c(O)c1)[C@H](O)C2 [EGC, Epigallocatechin]
Ans: no activity II

Q: Quick one: O=C(O[C@@H]1Cc2c(O)cc(O)cc2O[C@@H]1c1cc(O)c(O)c(O)c1)c1cc(O)c(O)c(O)c1 [EGCG, epigallocatechin gallate]
Ans: no activity II
